B1: Twister Ribozyme (parent)
chain: AACACUGCCAAUGCCGGUCCCAAGCCCGGAUAAAAGUGGAGGGGGCGG

# Variants of: B1
# assayComment: self-cleavage, relative activity (ratio to wild type); higher = more cleavage; co-transcriptional
reportedMetric: self-cleavage
Just the number, please, no unit attached.

A4C G45U; 0.0976
C20U G28A; 0.809
C8U C21G; 0.0658
G13C G47A; 0.154
G17C G41U; 0.0841

Consider the additional variant presented here.
stdin: Let me know recorded self-cleavage for A1G C15A , thanks.
stdout: 0.265
